# key: entry, value: Ki
Molecular target: 5-hydroxytryptamine receptor 1A (Homo sapiens, UniProt P08908)
Assay: Displacement of [3H]8-OH-DPAT from human 5-HT1A receptor transfected in […] cells after 30 mins by liquid scintillation spectrometry
Answer in nM, number only, no unit symbol.

Per the record, `O=C1Cc2ccccc2N1CCCCN1CCN(c2cccc3ccccc23)CC1` has Ki of 47

Per the record, `O=c1oc2ccccc2n1CCCCN1CCN(c2ccccc2)CC1` has Ki of 90.3

More entries:
Per the record, COc1ccccc1N1CCN(CCCCC(=O)NC2CCCc3ccccc32)CC1 (stereo not drawn) has Ki of 6.05

====

# key: entry, value: Ki
Molecular target: 5-hydroxytryptamine receptor 1A (Homo sapiens)
Sequence (P08908 whole entry): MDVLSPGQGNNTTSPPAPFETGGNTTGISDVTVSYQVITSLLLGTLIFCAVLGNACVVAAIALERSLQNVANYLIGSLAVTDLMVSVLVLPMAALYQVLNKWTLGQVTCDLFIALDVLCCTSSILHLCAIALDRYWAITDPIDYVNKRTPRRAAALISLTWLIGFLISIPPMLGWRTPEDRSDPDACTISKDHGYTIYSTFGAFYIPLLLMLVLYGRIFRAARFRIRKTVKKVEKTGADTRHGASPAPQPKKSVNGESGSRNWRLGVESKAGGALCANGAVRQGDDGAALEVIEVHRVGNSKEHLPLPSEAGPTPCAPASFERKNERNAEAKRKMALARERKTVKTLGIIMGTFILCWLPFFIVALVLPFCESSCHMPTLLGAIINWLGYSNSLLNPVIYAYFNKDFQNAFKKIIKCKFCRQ
Test: Displacement of [3H]8-OH-DPAT from human 5-HT1A receptor transfected in […] cells after 30 mins by liquid scintillation spectrometry
Answer in nM, number only, no unit symbol.

Per the record, O=C1Nc2cc(F)ccc2C1CCCCN1CCN(c2cccc(Cl)c2)CC1 (stereo unspecified) has Ki of 6.7

More entries:
Per the record, `O=c1oc2ccccc2n1CCCCCCCN1CCN(c2ccccc2)CC1` has Ki of 29.8

Per the record, `COc1ccccc1N1CCN(CCCCCn2c(=O)sc3ccccc32)CC1` has Ki of 7.13
